glycan array binding signal (z-score): recorded values
- testedSystem: Gal(b1-4)GlcNAc(b1-3)Gal(b1-4)GlcNAc(b1-3)Gal(b1-4)GlcNAc(b1-2)Man(a1-3)[Gal(b1-4)GlcNAc(b1-3)Gal(b1-4)GlcNAc(b1-3)Gal(b1-4)GlcNAc(b1-2)Man(a1-6)]Man(b1-4)GlcNAc(b1-4)GlcNAc
- testSummary: glycan array binding signal (z-score within array); higher = stronger binding
- conditionSummary: glycan notation: IUPAC condensed, linker removed
The entries come from a sample that favours the strongest signals as a whole.
measuredProperty: glycan array binding signal (z-score)

{"columns": ["binder", "resultValue"],
 "data": [
  ["DC-ASGPR-short (Homo sapiens) (protein) MTRTYENFQYLENKVKVQGFKNGPLPLQSLLQRLRSGPCHLLLSLGLGLLLLVIICVVGFQNSKFQRDLVTLRTDFSNFTSNTVAEIQALTSQGSSLEETIASLKAEVEGFKQERQAVHSEMLLRVQQLVQDLKKLTCQVATLNNNASTEGTCCPVNWVEHQDSCYWFSHSGMSWAEAEKYCQLKNAHLVVINSREEQNFVQKYLGSAYTWMGLSDPEGAWKWVDGTDYATGFQNWKPGQPDDWQGHGLGGGEDCAHFHPDGRWNDDVCQRPYHWVCEAGLGQTSQESH", -0.221],
  ["Erv46-EDTA (Saccharomyces cerevisiae), P39727 (protein) MKFLVNVALVFMVVYISYIYAAAPEHHHHHHDYDIPTTENLYFQGAMDSVVTRPQLVVDRDRHAKLELNMDVTFPSMPCDLVNLDIMDDSGEMQLDILDAGFTMSRLNSEGRPVGDATELHVGGNGDGTAPVNNDPNYCGPCYGAKDQSQNENLAQEEKVCCQDCDAVRSAYLEAGWAFFDGKNIEQCEREGYVSKINEHLNEGCRIKGSAQINRIQGNLHFAPGKPYQNAYGHFHDTSLYDKTSNLNFNHIINHLSFGKPIQSHSKLLGNDKRHGGAVVATSPLDGRQVFPDRNTHFHQFSYFAKIVPTRYEYLDNVVIETAQFSATFHSRPLAGGRDKDHPNTLHVRGGIPGMFVFFEMSPLKVINKEQ", 3.36],
  ["EUL D1A (Oryza sativa) (protein) MFGFGHHHNQAPAAPSDPNQIFKIFCRANENYCLTVRDSAVVLAPVNPKDEHQHWFKDMRFSTKVKDGEGMPAFALVNKATGLAVKHSLGQSHPVKLVPFNPEYEDASVLWTESKDVGKGFRCIRMVNNTRLNLDAFHGDKDHGGVRDGTTVVLWEWCKGDNQSWKILPWGPEAHSSSPGAATACTIGGVPVHTVRVFSAAGEDYCLTVRNGTACLAPKNPRDDYQHWIKDMRHSNKIRDEEGYPAFALVNKVTGEAIKHSTGQGHPVKLVPYNPEYQDESVLWTESKDVGKGFRCIRMVNNIYLNFDAFHGDKDHGGIHDGTEIVLWKWCEGDNQRWKILPWILEQKLISEEDLNSAVDHHHHHH", 2.18],
  ["Ovorubin (Pomacea canaliculata), J7I2T6 (protein) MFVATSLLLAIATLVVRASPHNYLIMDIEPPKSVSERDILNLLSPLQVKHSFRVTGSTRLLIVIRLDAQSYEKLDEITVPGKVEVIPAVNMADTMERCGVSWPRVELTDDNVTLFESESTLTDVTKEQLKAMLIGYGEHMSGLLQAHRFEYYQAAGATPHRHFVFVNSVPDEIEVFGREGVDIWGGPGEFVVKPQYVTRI", 0.387],
  ["CPA (Cicer arietinum) (protein) MAFSYLNLVLVTLTTLFFLQTTKVKSQKSVSFHITNFTISRPSITLQGTAEFLPNVLLLNDIEHPVFVVGRALYSKPITLWNNKTGKVASFVTSFTFDVQDLKKTVPGHGLVFFLAPSGSEIPFSSDGGNLGVVDGKNAFNRFVGVEFDNFVNSWDPKYSHVGINVNSLISTKTVKWNRVSGELVKVSIVYDSVSTTLTVIVTYKNGQISILSQLVDLKAVLPDTVNIGFSASTTLVSPRQLHNIHSWSFTSTFET", 4.32],
  ["MPA (Maclura pomifera), P18674 (protein) GVTFDDGAYTGIREINFEYNSETAIGGLRVTYDLNGMPFVAEDHKSFITGFKPVKISLEFPSEYIVEVSGYVGKVEGYTVIRSLTFKTNKQTYGPYGVTNGTPFSLPIENGLIVGFKGSIGYWLDYFSIYLSL", 8.11],
  ["MAL-II (Maackia amurensis), P93248 (protein) ATSNSKPTQVLLATFLTFFFLLLNNVNSSDELSFTINNFVPNEADLLFQGEASVSSTGVLQLTRVENGQPQQYSVGRALYAAPVRIWDNTTGSVASFSTSFTFVVKAPNPTITSDGLAFFLAPPDSQIPSGRVSKYLGLFNNSNSDSSNQIVAVEFDTYFGHSYDPWDPNYRHIGIDVNGIESIKTVQWDWINGGVAFATITYLAPNKTLIASLVYPSNQTSFIVAASVDLKEILPEWVRVGFSAATGYPTQVETHDVLSWSFTSTLEANSDAATENNVHIARYTA", 0.674],
  ["rCnSL-proB (Clitocybe nebularis) (protein) PTFSPIFALLAFLPFGTLASLLPQTQLVFRINPNLPGPNDVFVGYRGTNNVVGAIYERDGIKDTPMNNGADAELGPGSYITDDLFTAQIFASGSAGNNPGTTATVCKIYADGVQWRGAPKGYLPVLYFGNGQAAEQTRQTYLQGLDIPGTAIRFANLAKTPNQGPTAPRQMVVPSGGLQTLLKASCFPANHAALPQVLSYFNVRAALPPGWNIRTGPEFPNWTN", 4.18],
  ["YASPKCFRYPNGVLACT [Odorranalectin (Odorrana grahami), B3TFE9_RANGR]", 2.11],
  ["Gal 1 (Mus musculus), P16045 (protein) MACGLVASNLNLKPGECLKVRGEVASDAKSFVLNLGKDSNNLCLHFNPRFNAHGDANTIVCNTKEDGTWGTEHREPAFPFQPGSITEVCITFDQADLTIKLPDGHEFKFPNRLNMEAINYMAADGDFKIKCVAFE", 2.85],
  ["ECA (Erythrina cristagalli), P83410 (protein) VETISFSFSEFEPGNDNLTLQGAALITQSGVLQLTKINQNGMPAWDSTGRTLYTKPVHMWDSTTGTVASFETRFSFSIEQPYTRPLPADGLVFFMGPTKSKPAQGYGYLGVFNNSKQDNSYQTLAVEFDTFSNPWDPPQVPHIGIDVNSIRSIKTQPFQLDNGQVANVVIKYDAPSKILHVVLVYPSSGAIYTIAEIVDVKQVLPDWVDVGLSGATGAQRDAAETHDVYSWSFQASLPE", 4.58]
]}
